Field: Selectivity ratio. Provide a value for each of the compounds that follow.
- method-summary: Selectivity ratio is IC 50 value of dopamine receptor to that of serotonin 5-HT
// response body must contain only the number

## Task Query: Selectivity ratio; subject: COC(=O)C1C(c2cccc(I)c2)CC2CCC1N2C (stereo not given)
## Result 0.4

## Task Would you mind doing COC(=O)C1C(c2cccc(Br)c2)CC2CCC1N2C (stereo not given) as well?
## Result 3

## Task Would you mind doing COC(=O)C1C(c2ccc(I)cc2)CC2CCC1N2C (stereo not given) as well?
## Result 2

## Task Would you mind doing COC(=O)C1C2CCC(CC1c1ccc(Cl)cc1)N2 (stereo not given) as well?
## Result 1

## Task Would you mind doing COC(=O)C1C(c2ccc(Cl)c(Cl)c2)CC2CCC1N2C (stereo not given) as well?
## Result 2
